Tested on: parasitemia
Test: onset of drug action and recrudescence after single oral dose
Assay type: in vivo
Conditions: single 100 mg/kg po on day +3 post-infection
What Recrudescence (>5% parasitemia) occurs on day was measured for each of the following?
Write the numeric value and append its unit.

Look over these answered cases.
| compound | observed |
| --- | --- |
| CC1(C)COC2(CCC3(CC2)OOC2(O3)C3CC4CC(C3)CC2C4)OC1 (centres unmarked) | 10 days |
| C[C@H]1[C@H](OC(=O)CCC(=O)O)O[C@@H]2O[C@@]3(C)CC[C@H]4[C@H](C)CC[C@@H]1[C@@]24OO3 [Artesunate, artesunate, reference compound] | 2 days |
| C1CCC2(CC1)OOC1(O2)C2CC3CC(C2)CC1C3 (centres unmarked) | 7 days |
| O=C1CCC2(CC1)OOC1(O2)C2CC3CC(C2)CC1C3 (centres unmarked) | 5 days |

q: Query (compound): c1ccc(C2CCC3(CC2)OOC2(O3)C3CC4CC(C3)CC2C4)cc1 (centres unmarked) ; field requested: Recrudescence (>5% parasitemia) occurs on day
a: 11 days
